Molecular target: hPR-A (Homo sapiens)
Sequence (P06401 165-933): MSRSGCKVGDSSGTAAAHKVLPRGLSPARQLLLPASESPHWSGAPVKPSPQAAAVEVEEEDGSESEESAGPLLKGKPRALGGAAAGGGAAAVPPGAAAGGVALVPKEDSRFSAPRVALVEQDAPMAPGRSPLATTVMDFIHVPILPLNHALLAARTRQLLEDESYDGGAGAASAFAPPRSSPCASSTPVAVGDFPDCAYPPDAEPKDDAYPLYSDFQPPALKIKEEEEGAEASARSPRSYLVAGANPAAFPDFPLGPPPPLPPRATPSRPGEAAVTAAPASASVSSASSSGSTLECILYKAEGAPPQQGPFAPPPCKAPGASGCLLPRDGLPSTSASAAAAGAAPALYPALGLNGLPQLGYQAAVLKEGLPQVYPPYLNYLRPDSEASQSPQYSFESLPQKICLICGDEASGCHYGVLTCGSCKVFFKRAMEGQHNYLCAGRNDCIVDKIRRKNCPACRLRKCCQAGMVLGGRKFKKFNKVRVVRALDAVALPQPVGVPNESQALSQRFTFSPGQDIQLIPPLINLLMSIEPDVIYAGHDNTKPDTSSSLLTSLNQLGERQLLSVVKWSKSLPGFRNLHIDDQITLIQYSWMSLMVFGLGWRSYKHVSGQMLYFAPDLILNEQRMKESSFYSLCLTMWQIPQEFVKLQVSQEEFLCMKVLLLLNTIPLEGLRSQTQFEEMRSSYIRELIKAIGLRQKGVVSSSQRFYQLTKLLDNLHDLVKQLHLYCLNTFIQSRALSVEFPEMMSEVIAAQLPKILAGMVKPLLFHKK
Experiment: Receptor competitive binding assay
Details: hPR-A; read-out: PR Binding Ki
measured-endpoint: Ki (nM)

Solved cases (2 shown):
{"columns": ["compound", "measured-endpoint", "value"],
 "data": [
  ["COc1cc2c(cc1F)-c1ccc3c(c1C(C1C=C(C)CCC1)O2)C(C)=CC(C)(C)N3 (racemic) [Compound 64]", "Ki", 485],
  ["CC1=CC(C2Oc3ccc(F)cc3-c3ccc4c(c32)C(C)=CC(C)(C)N4)CCC1 (racemic) [Compound 25]", "Ki", 6.3]
]}

1. COc1cc2c(cc1F)-c1ccc3c(c1C(C1C=C(C)CCC1)O2)C(C)=CC(C)(C)N3 (racemic) [Compound 65]
2. CC1=C[C@@H]([C@H]2Oc3ccc(F)cc3-c3ccc4c(c32)C=CC(C)(C)N4)CCC1 (racemic)
3. CC1=CC(C2Oc3ccc(F)cc3-c3ccc4c(c32)C(C)=CC(C)(C)N4)CCC1 (racemic) [Compound 24]
With regard to Ki, arrange the entries in ascending order, please. # answer = labels listed in requested order
3, 2, 1
